STUDY_TARGET: GST-FKH-FoxA2 (Rattus norvegicus (rat; cloned from genomic DNA)) (UniProt P32182)
Sequence (P32182 145-290, looked up): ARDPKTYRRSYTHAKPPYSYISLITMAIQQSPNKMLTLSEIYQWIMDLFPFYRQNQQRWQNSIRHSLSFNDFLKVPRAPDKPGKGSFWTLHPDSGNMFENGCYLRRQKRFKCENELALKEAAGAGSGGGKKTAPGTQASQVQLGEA
ASSAY_INFO: competition EMSA
REPORTED_CONDITIONS: 25 mM HEPES pH 7.6, 150 mM KCl, 0.2 mM EDTA, 0.2 mM EGTA, 10% glycerol, 1 mM DTT, 3 ug protein, 1 ng 32P-TTR probe, 2/5/20 ng competitor, on ice 15 min; 4% …
READOUT_NAME: binding signal (EMSA score (TTR=1))
Answers are plain numbers.

CAGTCTGAGAAACCTTGTTGATCTCAGGCAACCC (double strand) [non-site chr8:13025407 a]
0.07
CAGTGGTCACCCTTTGGTTTACCTTTTAGGAACA (double strand) [FoxA BS chr8:96902217 a]
0.52
CAGTAAGCCTCGCGTTGTTTGGTTAAGGGGCAGG (double strand) [FoxA BS chr1:7078701]
0.83
CAGTCCAGACTCGCTTGTTGACAGAGCTCAGGGC (double strand) [FoxA BS chr12:77880754 a]
0.38
CAGTGCTAGATCCAGTTTTTACACAGAAAGTTTC (double strand) [non-site chr8:13025407 b]
-0.06

Hi team, please reply with binding signal (EMSA score (TTR=1)) for each item in this list.
1. CAGTGGAACCTCTGATGTTGACTTTCCCTTGATT (double strand) [FoxA BS chr15:82621996 a]
2. CAGTGTGTTCCTATGTGTACACAGTACTTG (double strand) [FoxA BS chr4:3604382]

Reply:
1: 0.38; 2: 0.91
